- Tested on: HepG2 cells
- measurementDescription: HepG2 cytotoxicity counter-screen
- testSettings: cytotoxic activity against HepG2 cells
measuredParameter: Tox50 (µM)
The reply should be a number in µM, with the unit left off.

Known Tox50 results, listed for orientation:
Input line: Param item = COc1ccc2ccc(OC)c(CNCCCCCCNCc3c(OC)ccc4ccc(OC)cc34)c2c1.CS(=O)(=O)O ; retrieve measured Tox50.
Output line: 4.07

Input line: Can you share its Tox50? I mean this compound: COc1cc2nc(N3CCN(c4nc(N)c5cc(OC)c(OC)cc5n4)CC3)nc(N)c2cc1OC
Output line: 41.34

Input line: Could you share which Tox50 value was measured for CC(Cc1ccc(OCCCCOc2ccccc2)cc1)NCCC1CCCN1C (stereo not drawn) ?
Output line: 1.62

Proceeding to the next compound to report its Tox50.
Input line: # Tox50 lookup, item Clc1ccc(/N=C(/NCCCCCCCN/C(=N\c2ccc(Cl)cc2)Nc2ccc(Cl)cc2)Nc2ccc(Cl)cc2)cc1
Output line: 2.3

---

- System: P. falciparum female gametocytes
- measurementDescription: P. falciparum Dual Gamete Formation Assay (PfDGFA), female readout (Pfs25-positive female gametes)
- Format: cell-based, Plasmodium falciparum NF54
- testSettings: PfDGFA at 2µM, 24h preincubation with gametocytes; replicate R4
measuredParameter: % inhibition female (individual replicates) R4
Answer shape: numeric part, then the unit.

Examples from the recorded data:
Input line: Lab note: need % inhibition female (individual replicates) R4 for C[C@H](Cc1ccc(Oc2ccc(C[C@@H](C)NC[C@H](O)c3cccc(Cl)c3)cc2)cc1)NC[C@H](O)c1cccc(Cl)c1.Cl [TCMDC-131560] on P. falciparum female gametocytes, anyone have it?
Output line: 73.1%

Input line: Hi! What's the reported % inhibition female (individual replicates) R4 for CC(=O)c1ccc2nc[nH]c(=O)c2c1 [TCMDC-138172] on P. falciparum female gametocytes?
Output line: 66.0%

Input line: State its % inhibition female (individual replicates) R4 on P. falciparum female gametocytes: COc1ccc(C[C@H](N)C(=O)N[C@H]2[C@@H](O)[C@H](n3cnc4c(N(C)C)ncnc43)O[C@@H]2CO)cc1.Cl [TCMDC-123927]
Output line: 72.0%

Input line: Lab note: need % inhibition female (individual replicates) R4 with P. falciparum female gametocytes for entry CC(Cc1ccc(C(=O)Nc2ccc(CC(C)NCCc3cccc(Cl)c3)cc2)cc1)NCCc1ccc(C(F)(F)F)cc1 (stereo not drawn) [TCMDC-139790] , please look it up.
Output line: 27.0%

Input line: Give P. falciparum female gametocytes % inhibition female (individual replicates) R4 for Cn1c(-c2ccccc2)cc2c3c(N)nc(N)nc3ccc21 [TCMDC-137985]
Output line: 3.6%

Continuing:
Input line: For the record CCOc1c(CNCCCCCCNCc2ccc3ccccc3c2OCC)ccc2ccccc12.CS(=O)(=O)O [TCMDC-137942] , what value of % inhibition female (individual replicates) R4 is listed for P. falciparum female gametocytes?
Output line: 50.5%

---

- System: P. falciparum female gametocytes
- measurementDescription: P. falciparum Dual Gamete Formation Assay (PfDGFA), female readout (Pfs25-positive female gametes)
- Type: cell-based, Plasmodium falciparum NF54
- testSettings: 2µM, 24h preincubation with gametocytes prior to induction of gametogenesis; replicate R4
Please mark label 1 if the recorded % inhibition female (individual replicates) R4 is equal to or greater than 20%, and label 0 if it falls below.

Input line: Hi team, for O=C(O)C(F)(F)F.c1cc(-c2ccc(CN3CCCCC3)cc2)cc(-c2nc3ccccc3[nH]2)c1 , is the recorded % inhibition female (individual replicates) R4 at or above 20%?
Output line: label 1

Input line: Quick check, % inhibition female (individual replicates) R4 >= 20%? O=C(O)C(F)(F)F.c1ccc(CCNCc2ccc(-c3ccc(CNC4CCN(Cc5ccccc5)CC4)cc3)nc2)cc1
Output line: label 0

Input line: Confirm if % inhibition female (individual replicates) R4 reported for the compound CCS(=O)(=O)c1ccc(-c2cnc3[nH]cc(-c4ccc(N)cc4)c3c2)cc1 is 20% or above.
Output line: label 1

Input line: Quick check: does CN1CCN(CC2(Nc3nccc(NCCc4cn(C)c5ccccc45)n3)CCCCC2)CC1 have % inhibition female (individual replicates) R4 greater than or equal to 20%?
Output line: label 1

Input line: Please tell me: is the compound CCC(=C(CC)c1ccc(O)c(CNC2CCCCC2)c1)c1ccc(O)c(CNC2CCCCC2)c1.Cl at or over 20% in terms of % inhibition female (individual replicates) R4?
Output line: label 0

Input line: Please check the record O=C(Nc1cccc(-c2nn3ncccc3c2-c2ccnc(Nc3cccc(-c4cnco4)c3)n2)c1)c1c(F)cccc1F and state if its % inhibition female (individual replicates) R4 is at or above 20%.
Output line: label 0

Input line: Is the recorded value of % inhibition female (individual replicates) R4 equal to or greater than 20% for this compound? Cl.Cn1ccc(-c2cccc(Nc3ccnc4cc(-c5nccs5)ccc34)c2)n1
Output line: label 0

Input line: Check this compound for % inhibition female (individual replicates) R4 at or above 20%: CC(C)c1cc2c(ccc3nc(N)nc(N)c32)[nH]1
Output line: label 0

Input line: Does the reported % inhibition female (individual replicates) R4 for COc1ccc(CCNCCCCCNCCc2ccc(Cl)cc2)cc1OC.Cl fall at or above the 20% mark?
Output line: label 0

Input line: Does % inhibition female (individual replicates) R4 meet or surpass 20% for CN1CCC(N2CCC(Oc3cccc(C(=O)NCCCC4CCCC4)c3)CC2)CC1 ?
Output line: label 0

Others:
Input line: Is reported % inhibition female (individual replicates) R4 greater than or equal to 20% here: CN(C)CCCOc1cccc(CCNCc2cccc(Oc3ccc(Cl)cc3)c2)c1.O=C(O)C(F)(F)F
Output line: label 0

Input line: Evaluate CN1CCC(NCc2ccc(-c3ccc(S(=O)(=O)NCc4ccccc4)cc3)cc2)CC1.O=C(O)C(F)(F)F : % inhibition female (individual replicates) R4 at minimum 20%?
Output line: label 0

Input line: Given CC(=O)Nc1ccc2[nH]cc(C3CCN(CC4CCC(NC(=O)/C=C/c5ccc(Cl)c(Cl)c5)CC4)CC3)c2n1 (stereo not shown) , state whether its % inhibition female (individual replicates) R4 is at least 20%.
Output line: label 1

Input line: Is % inhibition female (individual replicates) R4 for CN(C)CCCNCc1cn(S(=O)(=O)c2ccccc2Cl)c2ccccc12.Cl at or above 20%?
Output line: label 1

src = paper PMC10584170
